- PROTOCOL DETAILS: TD-6450 phase I clinical study (SAD/MAD): pharmacokinetics
- Assay type: in vivo, human
- CONDITION DETAILS: male, human, plasma, oral, 30 mg, Male subjects, SAD arm NCT02022306, Dose 30.00, 4 Hours; read-out: Concentration (ng/ml)
OBSERVATION TYPE: concentration at 4 h (ng/mL)

ENTRY SMILES	REPORTED
CNC(=O)N1C[C@@H](C)N(c2ccc(C(=O)Nc3ccc(-c4ccc(-c5c[nH]c([C@@H]6CCCN6C(=O)[C@@H](NC(=O)OC)C(C)C)n5)cc4)c(OC(F)(F)F)c3)cn2)C[C@@H]1C	17.9

====

- PROTOCOL DETAILS: TD-6450 phase I clinical study (SAD/MAD): pharmacokinetics
- Assay type: in vivo, human
- CONDITION DETAILS: female, human, plasma, oral, 5 mg, Female subjects, SAD arm NCT02022306, Dose 5.00, 24 Hours; read-out: Concentration

ENTRY SMILES	concentration at 24 h [ng/mL]
CNC(=O)N1C[C@@H](C)N(c2ccc(C(=O)Nc3ccc(-c4ccc(-c5c[nH]c([C@@H]6CCCN6C(=O)[C@@H](NC(=O)OC)C(C)C)n5)cc4)c(OC(F)(F)F)c3)cn2)C[C@@H]1C	2.55

====

- PROTOCOL DETAILS: TD-6450 phase I clinical study (SAD/MAD): pharmacokinetics
- Format: in vivo, human
- CONDITION DETAILS: female, human, plasma, oral, 5 mg, Female subjects, SAD arm NCT02022306, Dose 5.00, 15 Minutes; read-out: Concentration
- Description: Primary and secondary outcomes were pre-defined as follows: Safety and tolerability as a primary outcome, pharmacokinetics as a secondary outcome. Safety and tolerability were evaluated using standard measures, including adverse event (AE) monitoring, clinical laboratory tests (hematology, serum chemistry, coagulation, and urinalysis), vital signs, physical examinations, and 12-lead electrocardiograms (ECGs). […] This study was conducted in two parts, Part A (SAD) and Part B (MAD). […]

ENTRY SMILES	concentration at 15 min
CNC(=O)N1C[C@@H](C)N(c2ccc(C(=O)Nc3ccc(-c4ccc(-c5c[nH]c([C@@H]6CCCN6C(=O)[C@@H](NC(=O)OC)C(C)C)n5)cc4)c(OC(F)(F)F)c3)cn2)C[C@@H]1C	0 ng/mL

====

- PROTOCOL DETAILS: TD-6450 phase I clinical study (SAD/MAD): pharmacokinetics
- Type: in vivo, human
- CONDITION DETAILS: female, human, plasma, oral, 5 mg, Female subjects, SAD arm NCT02022306, Dose 5.00, 12 Hours; read-out: Concentration

MOLECULE	UNIT OF MEASURE	concentration at 12 h
CNC(=O)N1C[C@@H](C)N(c2ccc(C(=O)Nc3ccc(-c4ccc(-c5c[nH]c([C@@H]6CCCN6C(=O)[C@@H](NC(=O)OC)C(C)C)n5)cc4)c(OC(F)(F)F)c3)cn2)C[C@@H]1C [TD-6450]	ng/mL	3.01

====

- PROTOCOL DETAILS: TD-6450 phase I clinical study (SAD/MAD): pharmacokinetics
- Type: in vivo, human
- CONDITION DETAILS: male, human, plasma, oral, 30 mg, Male subjects, SAD arm NCT02022306, Dose 30.00, 168 Hours; read-out: Concentration (ng/ml)

ENTRY SMILES	concentration at 168 h / ng/mL
CNC(=O)N1C[C@@H](C)N(c2ccc(C(=O)Nc3ccc(-c4ccc(-c5c[nH]c([C@@H]6CCCN6C(=O)[C@@H](NC(=O)OC)C(C)C)n5)cc4)c(OC(F)(F)F)c3)cn2)C[C@@H]1C	2.29

====

- PROTOCOL DETAILS: TD-6450 phase I clinical study (SAD/MAD): pharmacokinetics
- Format: in vivo, human
- CONDITION DETAILS: male, human, plasma, oral, 30 mg, Male subjects, SAD arm NCT02022306, Dose 30.00, 72 Hours; read-out: Concentration

COMPOUND	concentration at 72 h, ng/mL
CNC(=O)N1C[C@@H](C)N(c2ccc(C(=O)Nc3ccc(-c4ccc(-c5c[nH]c([C@@H]6CCCN6C(=O)[C@@H](NC(=O)OC)C(C)C)n5)cc4)c(OC(F)(F)F)c3)cn2)C[C@@H]1C [TD-6450]	6.82

====

- PROTOCOL DETAILS: TD-6450 phase I clinical study (SAD/MAD): pharmacokinetics
- Format: in vivo, human
- CONDITION DETAILS: female, human, plasma, oral, 60 mg, Female subjects, SAD arm NCT02022306, Dose 60.00, 2 Hours; read-out: Concentration
OBSERVATION TYPE: concentration at 2 h (ng/mL)

ENTRY SMILES	OBSERVATION TYPE	REPORTED
CNC(=O)N1C[C@@H](C)N(c2ccc(C(=O)Nc3ccc(-c4ccc(-c5c[nH]c([C@@H]6CCCN6C(=O)[C@@H](NC(=O)OC)C(C)C)n5)cc4)c(OC(F)(F)F)c3)cn2)C[C@@H]1C	concentration at 2 h	114

====

- PROTOCOL DETAILS: TD-6450 phase I clinical study (SAD/MAD): pharmacokinetics
- Assay type: in vivo, human
- CONDITION DETAILS: male, human, in vivo, TD-6450 concentration
OBSERVATION TYPE: concentration at 15 min (ng/mL)

ENTRY SMILES	OBSERVATION TYPE	UNIT OF MEASURE	REPORTED
CNC(=O)N1C[C@@H](C)N(c2ccc(C(=O)Nc3ccc(-c4ccc(-c5c[nH]c([C@@H]6CCCN6C(=O)[C@@H](NC(=O)OC)C(C)C)n5)cc4)c(OC(F)(F)F)c3)cn2)C[C@@H]1C	concentration at 15 min	ng/mL	0

====

- PROTOCOL DETAILS: TD-6450 phase I clinical study (SAD/MAD): pharmacokinetics
- Type: in vivo, human
- CONDITION DETAILS: human, in vivo, 1.5 mg; Male subjects, SAD arm NCT02022306, Dose 1.50, 4 Hours; read-out: Concentration

ENTRY SMILES	concentration at 4 h (ng/mL)
CNC(=O)N1C[C@@H](C)N(c2ccc(C(=O)Nc3ccc(-c4ccc(-c5c[nH]c([C@@H]6CCCN6C(=O)[C@@H](NC(=O)OC)C(C)C)n5)cc4)c(OC(F)(F)F)c3)cn2)C[C@@H]1C	1.92

====

- PROTOCOL DETAILS: TD-6450 phase I clinical study (SAD/MAD): pharmacokinetics
- Format: in vivo, human
- CONDITION DETAILS: female, human, plasma, oral, 0.5 mg, Female subjects, SAD arm NCT02022306, Dose 0.50, 24 Hours; read-out: Concentration
OBSERVATION TYPE: concentration at 24 h (ng/mL)

COMPOUND	OBSERVATION TYPE	UNIT OF MEASURE	REPORTED
CNC(=O)N1C[C@@H](C)N(c2ccc(C(=O)Nc3ccc(-c4ccc(-c5c[nH]c([C@@H]6CCCN6C(=O)[C@@H](NC(=O)OC)C(C)C)n5)cc4)c(OC(F)(F)F)c3)cn2)C[C@@H]1C [TD-6450]	concentration at 24 h	ng/mL	0

====

Reported Score (safety) values for the following molecules.
- PROTOCOL DETAILS: Hit scoring on safety in human subjects and pharmacokinetics
Counter-ions that a name gives are not always drawn.

MOLECULE	Score (safety)
COc1cc2c(cc1OC)[C@@H]1Cc3ccc(OC)c(OC)c3CN1CC2 [(S)-(-)-Tetrahydropalmatine]	3
CC[n+]1c(/C=C/c2ccc(N3CCCC3)cc2)cccc1/C=C/c1ccc(N2CCCC2)cc1.[I-] [Stilbazium iodide]	0
CC(=O)OC[C@H]1O[C@@H]([S-])[C@H](OC(C)=O)[C@@H](OC(C)=O)[C@@H]1OC(C)=O.CCP(CC)CC.[Au+]	0
CN(C)Cc1c(C(=O)NCCOc2ccc(C(=O)NO)cc2)oc2ccccc12	0
COc1ccc(NC(=O)N2CCCCN3[C@H](CN(C)C)[C@H](c4ccc(C#Cc5ccccc5)cc4)[C@@H]3C2)cc1	0
CCCCCCCCN=c1ccn(CCCCCCCC)cc1	0
COc1ccc(-c2nc(N3CCOCC3)c3sc(CN(C)c4ncc(C(=O)NO)cn4)cc3n2)cn1	0
Cn1cc(CNCC2CCN(c3ncc(C(=O)NO)cn3)CC2)c2ccccc21	0
CNC(=O)N1C[C@@H](C)N(c2ccc(C(=O)Nc3ccc(-c4ccc(-c5c[nH]c([C@@H]6CCCN6C(=O)[C@@H](NC(=O)OC)C(C)C)n5)cc4)c(OC(F)(F)F)c3)cn2)C[C@@H]1C	3
CN(C)c1ccc2c(c1)Sc1cc(N(C)C)ccc1N2 [Leuco methylthioninium salt]	0
COc1ccc(-c2ccc3ncc4c(c3c2)n(-c2ccc(N3CCNCC3)c(C(F)(F)F)c2)c(=O)n4C)cn1	0
COC(=O)C1=C(C)NC(C)=C(C(=O)OC)C1c1cc([N+](=O)[O-])ccc1OCCCCNCC(O)COc1ccccc1 (centres unmarked)	0
O=C(NO)c1cnc(N2C[C@@H]3[C@H](C2)[C@H]3NCc2ccc3cc(F)ccc3n2)nc1	0
COc1cccc2c1ccc1nc3cccc(C(=O)N[C@H](C)CN(C)C)c3nc12	0
CCN(CC)Cc1ccc2cc(COC(=O)Nc3ccc(C(=O)NO)cc3)ccc2c1.Cl.O [Givinostat hydrochloride]	0
O=C(NCCN1CCCC1)c1cc(-c2ccc(CN3CCOCC3)cc2)nc2ccc(F)cc12	0
CCCC1(CCC)CCC2(CCN(CCCN(CC)CC)C2)CC1.O=C(O)/C=C\C(=O)O.O=C(O)/C=C\C(=O)O [Atiprimod dimaleate]	0

Hey, just so you know, these numbers are from paper PMC10082216.
